Target: 14-3-3ζ (Homo sapiens, UniProt P63104)
Construct: hexa-His; made in house; host or cells: E. coli BL21(DE3) Star
Sequence (P63104 whole entry): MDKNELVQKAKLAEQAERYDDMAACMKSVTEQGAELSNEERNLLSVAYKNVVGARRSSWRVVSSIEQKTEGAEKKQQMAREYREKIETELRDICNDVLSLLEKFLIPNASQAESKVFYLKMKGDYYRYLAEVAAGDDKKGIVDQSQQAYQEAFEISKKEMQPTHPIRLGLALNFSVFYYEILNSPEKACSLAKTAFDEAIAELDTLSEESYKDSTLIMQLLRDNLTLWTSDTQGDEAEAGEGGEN
Experiment: Biolayer interferometry (Octet RED96), immobilised biotinylated peptides, 14-3-3ζ in solution
Type: binding
Settings: typical experiment (n ≥ 3)
Square brackets hold non-standard residues; d marks the D form. Peptide text beside a SMILES is read from it. * marks the point of attachment. Geranylgeranyl = CC(C)=CCC/C(C)=C/CC/C(C)=C/CC/C(C)=C/C*; Biotin = O=C1N[C@H]2[C@H](CS[C@H]2CCCCC(=O)*)N1; Farnesyl = CC(C)=CCC/C(C)=C/CC/C(C)=C/C*; pS = N[C@@H](COP(=O)(O)O)C(=O)O; X1 = CC(C)=CCC/C(C)=C/C*; Ahx = NCCCCCC(=O)O; Prenyl = CC(C)=CC*
measured-endpoint: koff (s⁻¹)
Give just the numeric value; s⁻¹ need not be written.

QUERY: Look up koff: CC(C)=CCC/C(C)=C/CC/C(C)=C/CSC[C@H](NC(=O)[C@H](COP(=O)(O)O)NC(=O)[C@H](CCCCN)NC(=O)[C@H](C)NC(=O)[C@H](CCCCN)NC(=O)[C@H](CC(=O)O)NC(=O)[C@H](CCCCN)NC(=O)[C@H](CCCNC(=N)N)NC(=O)[C@H](CC(C)C)NC(=O)[C@@H](N)CC(=O)O)C(=O)O [+P+F] (H-DLRKDKAK[pS]C(Farnesyl)-OH)
RESULT: 0.028

Continuing:
QUERY: Look up koff: CC(C)=CCSC[C@H](NC(=O)[C@H](COP(=O)(O)O)NC(=O)[C@H](CCCCN)NC(=O)[C@H](C)NC(=O)[C@H](CCCCN)NC(=O)[C@H](CC(=O)O)NC(=O)[C@H](CCCCN)NC(=O)[C@H](CCCNC(=N)N)NC(=O)[C@H](CC(C)C)NC(=O)[C@H](CC(=O)O)NC(=O)CCCCCNC(=O)CCCC[C@@H]1SC[C@@H]2NC(=O)N[C@@H]21)C(=O)O [+P+Ipr] ({Biotin-Ahx}-DLRKDKAK[pS]C(Prenyl)-OH)
RESULT: 0.13

QUERY: Look up koff: CC(C)=CCC/C(C)=C/CC/C(C)=C/CC/C(C)=C/CSC[C@H](NC(=O)[C@H](COP(=O)(O)O)NC(=O)[C@H](CCCCN)NC(=O)[C@H](C)NC(=O)[C@H](CCCCN)NC(=O)[C@H](CC(=O)O)NC(=O)[C@H](CCCCN)NC(=O)[C@H](CCCNC(=N)N)NC(=O)[C@H](CC(C)C)NC(=O)[C@H](CC(=O)O)NC(=O)CCCCCNC(=O)CCCC[C@@H]1SC[C@@H]2NC(=O)N[C@@H]21)C(=O)O [+P+GG] ({Biotin-Ahx}-DLRKDKAK[pS]C(Geranylgeranyl)-OH)
RESULT: 0.021

QUERY: Look up koff: CC(C)=CCC/C(C)=C/CSC[C@H](NC(=O)[C@H](COP(=O)(O)O)NC(=O)[C@H](CCCCN)NC(=O)[C@H](C)NC(=O)[C@H](CCCCN)NC(=O)[C@H](CC(=O)O)NC(=O)[C@H](CCCCN)NC(=O)[C@H](CCCNC(=N)N)NC(=O)[C@H](CC(C)C)NC(=O)[C@H](CC(=O)O)NC(=O)CCCCCNC(=O)CCCC[C@@H]1SC[C@@H]2NC(=O)N[C@@H]21)C(=O)O [+P+G] ({Biotin-Ahx}-DLRKDKAK[pS]C(X1)-OH)
RESULT: 0.032
